Target: Rat recombinant PDE10a (rPDE10a) (Rattus norvegicus (Rat), UniProt Q9QYJ6)
Sequence (Q9QYJ6 whole entry): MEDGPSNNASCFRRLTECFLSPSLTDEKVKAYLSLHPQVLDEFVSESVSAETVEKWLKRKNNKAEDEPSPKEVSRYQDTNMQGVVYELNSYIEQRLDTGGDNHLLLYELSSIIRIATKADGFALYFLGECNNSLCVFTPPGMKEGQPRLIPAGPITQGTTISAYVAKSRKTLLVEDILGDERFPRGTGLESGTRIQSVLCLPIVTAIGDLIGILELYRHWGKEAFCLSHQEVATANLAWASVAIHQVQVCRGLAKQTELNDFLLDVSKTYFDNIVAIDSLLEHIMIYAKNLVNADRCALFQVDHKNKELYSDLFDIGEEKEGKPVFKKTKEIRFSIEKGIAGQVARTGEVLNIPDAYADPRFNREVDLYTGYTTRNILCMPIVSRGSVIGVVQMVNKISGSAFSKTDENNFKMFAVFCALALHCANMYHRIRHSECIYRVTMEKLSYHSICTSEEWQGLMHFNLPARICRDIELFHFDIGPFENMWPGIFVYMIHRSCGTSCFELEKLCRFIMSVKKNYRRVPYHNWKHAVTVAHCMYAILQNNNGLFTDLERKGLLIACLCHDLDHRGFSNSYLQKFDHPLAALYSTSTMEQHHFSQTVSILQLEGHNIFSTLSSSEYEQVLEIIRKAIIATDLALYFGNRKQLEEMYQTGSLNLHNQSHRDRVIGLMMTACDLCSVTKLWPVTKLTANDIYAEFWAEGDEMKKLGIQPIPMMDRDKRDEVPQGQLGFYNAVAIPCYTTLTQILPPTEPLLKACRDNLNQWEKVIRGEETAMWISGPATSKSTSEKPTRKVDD
Assay: In vitro assay PDE10a: rat recombinant PDE10a SPA with 3H-cAMP substrate, IC50
Details: 60 nM cAMP, read-out: rPDE10a2 IC50
Procedure: In Vitro Assay PDE10a Rat recombinant PDE10a (rPDE10a) was expressed in Sf9 cells using a recombinant rPDE10a baculovirus construct. Cells were harvested after 48 h of infection and the rPDE10a protein was purified by metal chelate chromatography on Ni-sepharose 6FF. Tested compounds were dissolved and diluted in 100% DMSO to a concentration 100 fold of the final concentration in the assay. […] The reaction was incubated for 60 min at rt. […]
pIC50: −log10 of the molar value. Structures can show the parent of a compound that is named as a salt.
metric-name: pIC50

Consider the reported pIC50 for these compounds:
# compound, pIC50
measured = [
    ("O=C(O)[C@@H]1CCCN1C(=O)c1ccc(-c2c(/C=C/c3ccc4ccccc4n3)nc3c(N4CCOCC4)ccnn23)cc1 [Cpd 71, trifluoroacetic acid salt]", 8.10),
    ("O=C(O)CC1CCN(c2c(/C=C/c3ccc4ccccc4n3)nc3c(N4CCOCC4)ccnn23)CC1 [Cpd 156]", 8.15),
    ("O=C(O)c1ccc(Nc2c(/C=C/c3ccc4ccccc4n3)nc3c(N4CCOCC4)ccnn23)cc1 [Cpd 138]", 8.70),
    ("Oc1c(F)cc(-c2c(/C=C/c3ccc4ccccc4n3)nc3c(N4CCOCC4)ccnn23)cc1F [compound 80]", 8.70),
    ("O=C(O)c1ccc(-c2c(CCc3ccc4ccccc4n3)nc3c(N4CCOCC4)ccnn23)cc1 [compound 41]", 9.00),
]

a: CN(C)c1ccc(-c2c(COc3ccc4ccccc4n3)nc3c(N4CCOCC4)ccnn23)cn1 [Cpd 5]
b: O=C(O)CCNC(=O)c1ccc(-c2c(CCc3ccc4ccccc4n3)nc3c(N4CCOCC4)ccnn23)cc1 [compound 46]
c: O=C(O)c1ccc(-c2c(/C=C/c3ccc4ccccc4n3)nc3c(N4CCOCC4)ccnn23)cc1F [compound 103]
d: O=C(O)c1ccc(-c2c(C#Cc3cccc(C(F)(F)F)n3)nc3c(N4CCOCC4)ccnn23)cc1 [Cpd 111]
e: O=C(O)c1ccc(-c2c(/C=C/c3ccc4c(n3)CCCC4)nc3c(N4CCOCC4)ccnn23)cc1 [Cpd 76]
### Prompt Output the entries ranked by pIC50 from maximum down to minimum. Provide the labels, sequenced as the question asks.
### Response b, c, e, d, a

P: CS(=O)(=O)NC(=O)c1ccc(-c2c(C#Cc3ccc4ccccc4n3)nc3c(N4CCOCC4)ccnn23)cc1 [compound 83]
Q: c1ccc2nc(NCc3nc4c(N5CCOCC5)ccnn4c3-c3ccc(N4CCNCC4)nc3)ccc2c1 [Cpd 4, trifluoroacetic acid salt]
R: Nc1ccc(-c2c(/C=C/c3ccc4ccccc4n3)nc3c(N4CCOCC4)ccnn23)cn1 [Cpd 18]
S: c1ccc2nc(CCc3nc4c(N5CCOCC5)ccnn4c3-c3ccc(N4CCNCC4)nc3)ccc2c1 [Cpd 13, trifluoroacetic acid salt]
T: CS(=O)(=O)NC(=O)c1cccc2nc(/C=C/c3nc4c(N5CCOCC5)cc(Cl)nn4c3-c3cccnc3)ccc12 [Cpd 141]
### Prompt Arrange the 5 entries by pIC50 so the values rise. Provide the labels, sequenced as the question asks.
### Response Q, T, S, R, P
(Q: 6.70, T: 7.64, S: 7.85, R: 8.52, P: 9.00)
